Collected pIC50 values appear next to each entry.
# system-tested: Renin (Homo sapiens)
# Sequence (P00797 whole entry): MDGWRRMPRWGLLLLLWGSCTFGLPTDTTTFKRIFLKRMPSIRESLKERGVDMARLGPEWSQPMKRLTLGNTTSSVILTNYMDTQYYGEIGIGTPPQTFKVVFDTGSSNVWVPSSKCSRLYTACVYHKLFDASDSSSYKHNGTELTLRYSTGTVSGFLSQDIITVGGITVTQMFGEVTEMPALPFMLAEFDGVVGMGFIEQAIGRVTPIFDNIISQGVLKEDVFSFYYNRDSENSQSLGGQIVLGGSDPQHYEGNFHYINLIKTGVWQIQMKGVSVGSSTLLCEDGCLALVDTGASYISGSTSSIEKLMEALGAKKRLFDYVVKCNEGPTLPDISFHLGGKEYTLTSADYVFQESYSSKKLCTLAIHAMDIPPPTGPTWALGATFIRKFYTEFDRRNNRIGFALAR
# assay-procedure: Compound was evaluated for the inhibitory concentration against purified human renal renin at pH 6.5
pIC50: −log10 of the molar value.

| structure-string | pIC50 |
| --- | --- |
| CCN1C[C@@H]([C@H](O)[C@H](CC2CCCCC2)NC(=O)[C@H](Cc2cn(C)cn2)NC(=O)[C@@H](CC(=O)N2CCOCC2)Cc2ccccc2)OC1=O | 8.13 |
| CCN1C[C@@H]([C@H](O)[C@H](CC2CCCCC2)NC(=O)[C@H](Cc2cccs2)NC(=O)[C@@H](CC(=O)N2CCOCC2)Cc2ccccc2)OC1=O | 8.82 |
| CCN1C[C@@H]([C@H](O)[C@H](CC2CCCCC2)NC(=O)[C@H](Cc2cscn2)NC(=O)[C@@H](CC(=O)N2CCOCC2)Cc2ccccc2)OC1=O | 9.22 |
| CCN1C[C@@H]([C@H](O)[C@H](CC2CCCCC2)NC(=O)[C@H](Cc2cc[nH]n2)NC(=O)[C@@H](CC(=O)N2CCOCC2)Cc2ccccc2)OC1=O | 8.96 |
